Assignment: determine reported Residual turnover for the given molecules.
# Test system: HPPD polypeptides (wild-type SEQ ID NO:1 and mutants)
# reported.conditions: in the presence of Cmpd. 1, 15 μM inhibitor, high substrate concentration; total change in signal normalized to no inhibitor
# Experimental: For the generation of crude HPPD polypeptide extract in micro titer plates (MTP) for the determination of residual activity in inhibition assays, cells were grown in 40 or 150 μl LB medium containing 1% Glucose (Merck, Darmstadt, Germany) and 100 μg/ml ampicillin in a standard 96 well plate (Thermo Fisher Scientific, Waltham, USA) incubated for about 18 h in a humidity incubator at 37° C. […]

{"molecule": "17 (protein, mutant HPPD polypeptide) MADLYENPMGLMGFEFIEFASPTPGTLEPIFEIMGFTKVATHRSKNVHLYRQGEINLILNNEPNSIASYFAAEHGPSVCGMAFRVKDSQKAYNRALELGAQPIHIDTGPMELNLPAIKGIGGAPLYLIDRFGEGSSIYDIDFVYLEGVERNPVGAGLKVIDHLTHNVYRGRMVYWANFYEKLFNFREARYFDIKGEYTGLTSKAMSAPDGMIRIPLNEESSKGAGQIEEFLMQFNGEGIQHVAFLTDDLVKTWDALKKIGMRFMTAPGDEYYEMLEGRLPDHGEPVDQLQARGILLDGSSVEGDKRLLLQIFSETLMGPVFFEFIQRKGDDGFGPDSFKVLFESVERDQVRRGVLTAD", "property.label": "Residual turnover", "assay.result": "68%"}

Turning to the following molecule.
Query: Supply reported Residual turnover belonging to this molecule: 7 (protein, mutant HPPD polypeptide) MADLYENPMGLMGFEFIEFASPTPGTLEPIFEIMGFTKVATHRSKNVHLYRQGEINLILNNEPNSIASYFAAEHGPSVCGMAFRVKDSQKAYNRALELGAQPIHIDTGPMELNLPAIKGIGGAPLYLIDRFGEGSSIYDIDFVYLEGVERNPVGAGLKVIDHLTHNVYRGRMVYWANFYEKLFNFREARYFDIKGEYTGLTSKAMSAPDGMIRIPLNEESSKGAGQIEEFLMQFNGEGIQHVAFLTDDLVKTWDALKKIGMRFMTAPPDTYYEMLEGRLPDHGEPVDQLQARGILLDGSSVEGDKRLLLQIFSETLMGPVFFEFIQRKGDDGFGPDSFKALFESIERDQVRRGVLTAD
Reply: 38%

Provenance of the data: patent US10597674B2
